These entries and their values trace back to ChEMBL document CHEMBL1201862.

# Test system: OVCAR-4
# measurement.protocol: NCI tumour cell line growth inhibition, 48 h
The source made the active and inactive calls. Cut-off read from the data, not from the text of the source: active = GI50 up to about 1.1 µM and inactive = higher.
measurement.kind: GI50

>  <compound>
CC(C)OP(=O)(OC(C)C)/C(=N/Nc1ccc([N+](=O)[O-])cc1)NN

>  <reported.result>
> 100 µM (inactive)

$$$$

Consider the following items and state reported GI50 for each.
1. Nc1ncn([C@H]2C[C@H](O)[C@@H](CO)O2)c(=O)n1 [DECITABINE]
2. CN(C)CCNc1ccc([N+](=O)[O-])c2sc3ccccc3c(=O)c12
3. N=C(N)NC(CC(=O)O)c1ccccc1 (stereo not given)

### Response
1. 104 µM (inactive)
2. 3.1 µM (inactive)
3. > 100 µM (inactive)

Your task in this section: give GI50 for each listed record.
1. N=C(N)SCc1ccc2c(c1)Sc1ccccc1O2
2. C[C@H]1CC[C@@H]2[C@@H](C)C[C@H]3[C@@H]4C(C)(C)OC(=O)[C@]4(C)C(=O)[C@@]23C1=O
3. COc1ccc(N2CN3OC(=O)N(c4ccc(OC)cc4)[C@@]3(c3ccccc3)C2)cc1
4. COc1cc(/C=C2\C[C@H]3[C@@H]4CC=C5C[C@@H](OC(C)=O)CC[C@]5(C)[C@H]4CC[C@]3(C)\C2=N\O)cc(OC)c1OC
5. C1=C(c2ccccc2)SC(N2CCCCC2)S1 (stereo not given)
6. Cn1c(=N)n[n+]([O-])c2ccccc21

### Response
1. 6.87 µM (inactive)
2. > 100 µM (inactive)
3. 20.3 µM (inactive)
4. 3.37 µM (inactive)
5. > 100 µM (inactive)
6. 1.94 µM (inactive)
